target: Protein kinase C gamma type (Homo sapiens) (UniProt P05129); settings: at 0.1 µM;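 note: values are mean percent inhibition of PKC gamma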
Examples of compounds with documented inhibition follow.
OUTCOME MEASURE: inhibition (%)

- NC(=O)c1cccc(Nc2nccc(Nc3cccc(F)c3)n2)c1: 2.94
- Cc1ccc2c(c1)/C(=N/Nc1ccc(S(N)(=O)=O)cc1)C(=O)N2: -1.71
- O=C1Nc2ccc(-c3cccnc3)cc2C1=Cc1cc(Br)c(O)c(Br)c1: 4.09
- CN(C)c1cc2c(Nc3ccc4c(cnn4Cc4ccccc4)c3)ncnc2cn1: 0.1
- Nc1ccc(C#Cc2cncnc2Nc2ccc(OCc3cccc(F)c3)c(Cl)c2)cc1: -0.9

Data origin, for the record: ChEMBL document CHEMBL1961873
